Target: DNA repair protein RAD51 homolog 1 (Homo sapiens, UniProt Q06609)
Sequence (Q06609 whole entry): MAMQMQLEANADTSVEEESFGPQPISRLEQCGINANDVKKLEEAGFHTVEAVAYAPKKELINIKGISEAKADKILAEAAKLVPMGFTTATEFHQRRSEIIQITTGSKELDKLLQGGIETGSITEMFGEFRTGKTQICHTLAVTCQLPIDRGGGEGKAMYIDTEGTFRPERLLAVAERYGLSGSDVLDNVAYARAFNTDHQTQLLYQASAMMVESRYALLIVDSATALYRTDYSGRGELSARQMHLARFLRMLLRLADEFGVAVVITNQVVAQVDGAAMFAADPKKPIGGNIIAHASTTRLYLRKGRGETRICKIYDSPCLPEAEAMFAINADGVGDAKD
pKd: −log10 of the molar value.
value.type: pKd

P = COC(=O)[C@@H](N)Cc1c[nH]c2ccccc12
Q = Oc1ccc2[nH]ccc2c1
R = O=C(N[C@@H](Cc1c[nH]c2ccccc12)C(=O)OCCc1ccccc1)c1ccccc1
S = O=S(=O)(NCCc1c[nH]c2ccccc12)c1cc(Br)c(Cl)s1
Exercise: Sort the entries above by pKd, largest first. Your answer should be the labels, listed in the requested order.
Solution: S, R, P, Q

---

Quick record: pKd, GTPase KRas (Homo sapiens).
Scale for pKd: -log10 of concentration given in mol/L; no unit attached.

input.smiles: CC[C@H](C)[C@H](N)C(=O)Nc1ccc2nc(Cc3c[nH]c4ccccc34)[nH]c2c1
value.type: pKd
data.value: 3.72

Let's switch to this compound now.
Exercise: Param request: pKd | system GTPase KRas (Homo sapiens) | item Cc1[nH]c2ccccc2c1Cc1nc2ccccc2[nH]1
Solution: 2.70
